test: The drug is tested on Clostridium sporogenes strain: ATCC15579 for biotransformation. The drug concentrations were measured before and after a 12-h incubation by liquid-chromatography-coupled mass spectrometry (LC–MS); settings: 2 µM
result-type: Bacterial Biotransformation

compound	result-type	value
CC(C)(C)NCC(O)COc1cccc2c1CC(O)C(O)C2 (stereo not drawn)	Bacterial Biotransformation	Compound NOT metabolized
CN1CCN(C(=O)O[C@H]2c3nccnc3C(=O)N2c2ccc(Cl)cn2)CC1	Bacterial Biotransformation	Compound NOT metabolized

* * *

assay: The drug is tested on Ruminococcus torques strain: ATCC27756 for biotransformation. The drug concentrations were measured before and after a 12-h incubation by liquid-chromatography-coupled mass spectrometry (LC–MS); format: ADME; design: dose 2 uM, timepoint 0 vs 12 hours; settings: 2 µM

molecule	Bacterial Biotransformation
CCOC(=O)[C@H](CCc1ccccc1)N[C@@H](C)C(=O)N1Cc2ccccc2C[C@H]1C(=O)O	Compound NOT metabolized
CCCN1C[C@H](CSC)C[C@@H]2c3cccc4[nH]cc(c34)C[C@H]21.CS(=O)(=O)O [PERGOLIDE MESYLATE]	Compound NOT metabolized
CN1CCc2c(c3ccccc3n2Cc2ccccc2)C1.CN1CCc2c(c3ccccc3n2Cc2ccccc2)C1.O=S(=O)(O)c1cccc2c(S(=O)(=O)O)cccc12	Compound NOT metabolized
